biological target: Serine/threonine-protein kinase Chk1 (Homo sapiens); assay: Inhibition of recombinant His-tagged CHK1 using biotin-RSGLYRSPSMPENLNRPR as substrate after 1 hr by scintillation proximity assay
Sequence (O14757 whole entry): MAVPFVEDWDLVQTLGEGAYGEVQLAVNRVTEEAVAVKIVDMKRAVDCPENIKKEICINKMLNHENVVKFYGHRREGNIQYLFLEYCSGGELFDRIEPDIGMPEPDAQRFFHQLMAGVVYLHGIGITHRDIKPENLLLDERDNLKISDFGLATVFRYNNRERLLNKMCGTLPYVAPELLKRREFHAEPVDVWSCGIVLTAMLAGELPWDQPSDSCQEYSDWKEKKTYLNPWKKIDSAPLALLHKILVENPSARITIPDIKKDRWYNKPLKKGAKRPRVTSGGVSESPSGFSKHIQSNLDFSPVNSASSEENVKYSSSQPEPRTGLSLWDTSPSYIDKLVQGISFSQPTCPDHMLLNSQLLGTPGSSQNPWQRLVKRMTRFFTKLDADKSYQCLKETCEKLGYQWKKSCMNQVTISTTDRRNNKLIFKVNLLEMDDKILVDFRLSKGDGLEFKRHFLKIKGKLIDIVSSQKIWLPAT
pIC50: −log10 of the molar value.
Classification by pIC50 | ranges: class A: < 6; class B: ≥ 6 and < 7; class C: ≥ 7

Q: Class label required: `O=C(Nc1ccccc1N1CCNCC1=O)c1csc(-c2ccc3c(c2)CCO3)n1`
A: class A

Q: Entry to check: `O=C(Nc1ccccc1C1CCNCC1)c1csc(-c2ccc3c(c2)CCO3)n1`
A: class A

Q: Same question for `CC(=O)N1CCN(c2ccccc2NC(=O)c2csc(-c3ccc4c(c3)CCO4)n2)CC1` please.
A: class A

Q: What do we get for `O=C(Nc1ccccc1N1CCNCC1)c1csc(C#Cc2ccccc2)n1` ?
A: class B

Q: Now consider `O=C(Nc1ccccc1N1CCNCC1)c1csc(-c2ccc3[nH]ccc3c2)n1` .
A: class C

====

Kindly supply the reported pIC50 values for the records listed here.
target: Serine/threonine-protein kinase Chk1 (Homo sapiens); assay: Inhibition of recombinant His-tagged CHK1 using biotin-RSGLYRSPSMPENLNRPR as substrate after 1 hr by scintillation proximity assay
Note on pIC50: it is the negative log10 of concentration, concentration in mol/L.

Q: Requested field: pIC50. Item: `O=C(Nc1ccccc1N1CCNCC1)c1csc(-c2ccc3c(c2)OCCCO3)n1`
A: 6.72

Q: Then what about the compound `O=C(Nc1ccccc1N1CCNCC1)c1csc(-c2csc3ccccc23)n1` ?
A: 7.16

Q: And for `O=C(Nc1ccccc1N1CCNCC1)c1csc(-c2cncnc2)n1` ?
A: 4.89

Q: Entry `COc1ccc(-c2nc(C(=O)Nc3ccccc3N3CCNCC3)cs2)cc1C` please
A: 6.24

Q: Now try `C[C@@H]1CN(c2ccccc2NC(=O)c2csc(-c3ccc4c(c3)CCO4)n2)CCN1` .
A: 6.92

Q: Continue with `O=C(Nc1ccccc1N1CCNCC1)c1csc(-c2ccc(Oc3ccccc3)cc2)n1`
A: 8.30

Q: Same again, this time with `C[C@H]1CN(c2ccccc2NC(=O)c2csc(-c3ccc4c(c3)CCO4)n2)CCN1`
A: 7.07

Q: Proceed to `O=C(Nc1ccccc1N1CCNCC1)c1csc(-c2ccc(-c3cccs3)s2)n1`
A: 6.89

Q: Similarly, `Cc1nc(-c2ccc3c(c2)CCO3)sc1C(=O)Nc1ccccc1N1CCNCC1` ?
A: 4.68

Q: Follow-up entry: `N#Cc1ccc(-c2nc(C(=O)Nc3ccccc3N3CCNCC3)cs2)cn1`
A: 5.28

Q: Repeat for the following compound: `O=C(Nc1ccccc1N1CCNCC1)c1csc(-c2ccc3occc3c2)n1`
A: 7.72

Q: Also `O=C(Nc1ccccc1N1CCNCC1)c1csc(-c2ccc3c(c2)OCO3)n1` , if possible.
A: 6.77

Q: Repeat with `O=C(Nc1ccccc1N1CCNCC1)c1csc(-c2ccsc2)n1`
A: 6.68

Q: Check `O=C(Nc1ccccc1C1=CCNCC1)c1csc(-c2ccc3c(c2)CCO3)n1` too.
A: 6.12

Q: Another compound to look at: `O=C(Nc1ccccc1N1CCNCC1)c1csc(-c2cc3ccccc3s2)n1`
A: 8.15

Q: Further, for `O=C(Nc1ccccc1N1CCNCC1)c1cc(-c2ccc3c(c2)OCO3)on1` ?
A: 5.47

Q: And then `CN1CCN(c2ccccc2NC(=O)c2csc(-c3ccc4c(c3)CCO4)n2)CC1` , what is it?
A: 5.70

Q: Record: `O=C(Nc1ccccc1N1CCNCC1)c1csc(-c2ccc3sccc3c2)n1`
A: 8.30

Q: And `O=C(Nc1ccccc1N1CCNCC1)c1csc(-c2cn[nH]c2)n1` ?
A: 6.72

Value source: ChEMBL document CHEMBL2034873
